Listed next: entries and their corresponding Residual activity (%).
Assay: Thermal stability: residual activity after incubation at 60° C. for one hour
Type: biochemical
Conditions: crude recombinant enzyme; after incubation at 60° C. for 1 hour
The answer is to be given in %; state only the numeric part.

Please give the measured Residual activity (%) for this molecule: Ketose 3-epimerase mutant 1: amino acid-substituted mutant of SEQ ID NO: 1 (protein, Arthrobacter histidinolovorans) MKIGCHGLVWTGRFDAEGIRYSVQKTKEAGFDLIEFPLMDPFSFDVATAKSALAEHGLSVSASLGLSEATDVSSEDPAIVKAGEELLNRALDVLAELGATEFCGVIYSAMKKYMEPATEQGLSNSKAAIGRVVDRAAGLGINVSLEVVNRYETNVLNTGRQALSYLSDVKRPNLGVHLDTYHMNIEESDMFSPVLDTAEVLKYVHIGESHRGYLGTGNVDFDNFFKALGRIGYDGPVVFESFSSAVVAPDLSRMLGIWRNLWADNEELGAHANAFIRDKLTAIKTIELH
74.1

// same read-out, input: Ketose 3-epimerase mutant 2: amino acid-substituted mutant of SEQ ID NO: 1 (protein, Arthrobacter histidinolovorans) MKIGCHGLVWTGRFDAEGIRYSVQKTKEAGFDLIEFPLMDPFSFDVATAKSALAEHGLTASASLGLSEATDVSSEDPAIVKAGEELLNRALDVLAELGATDFCGVIYSAMKKYMEPATEQGLSNSKAAVGRVVDRAAGLGINVSLEVVNRYETNVLNTGRQALSYLSDVKRPNLGVHLDTYHMNIEESDMFSPVLDTAEVLKYVHIGESHRGYLGTGNVDFDNFFKALGRIGYDGPVVFESFSSAVVAPDLSRMLGIWRNLWADNEELGAHANAFIRDKLTAIKTIELH
83.3

Can you check Ketose 3-epimerase mutant 37: amino acid-substituted mutant of SEQ ID NO: 1 (protein, Arthrobacter histidinolovorans) MKIGCHGLVWTGRFDAEGIRYSVQKTKEAGFDLIEFPLMDPFSFDVATAKSALAEHGLTASASLGLSEATDVSSEDPAIVKAGEELLNRALDVLAELGATDFCGVIYSSMKKYMEPATEQGLSNSKAAVGRVVDRAAGLGINVSLEVVNRYETNVLNTGRQALSYLSDVKRPNLGVHLDTYHMNIEESDMFSPVLDTAEALKYVHIGESHRGYLGTGSVDFDNFFKALGRIGYDGPVVFESFSSAVVAPDLSRMLGIWRNLWADNEELGAHANAFIRDKLTAIKTIELH next?
63.3

Proceed to the following item.
Entry Ketose 3-epimerase mutant 21: amino acid-substituted mutant of SEQ ID NO: 1 (protein, Arthrobacter histidinolovorans) MKIGCHGLVWTGRFDAEGIRYSVQKTKEAGFDLIEFPLMDPFSFDVATAKSALAEHGLSVSASLGLSEATDVSSEDPAIVKAGEELLNRALDVLAELGATEFCGVIYSAMKKYMEPATEQGLSNSKAAVGRVVDRAAGLGINVSLEVVNRYETNVLNTGRQALSYLSDVKRPNLGVHLDTYHMNIEESDMFSPVLDTAEALKYVHIGESHRGYLGTGSVDFDNFFKALGRIGYDGPVVFESFSSAVVAPDLSRMLGIWRNLWADNEELGAHANAFIRDKLTAIKTIELH has what Residual activity (%)?
59.4
